B1: HDAC6 (parent)
chain: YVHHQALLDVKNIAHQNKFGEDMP

Variants of: B1
procedure.summary: protein stability index of a GFP-peptide fusion (GPS, HEK-293T) (PSI 1-6); higher = more stable;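 note: lentivirally expressed fusions sorted by FACS into six bins by GFP to DsRed ratio, PSI derived from sequencing read proportions per bin multiplied by bin number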
condition.notes: c terminus: a fixed tail appended
Outcome label depends on protein stability index relative to 2: at/above gives TRUE, below gives FALSE.

Data request: Hello, I need to know if YVHHQALADVKNIAHQNKFGEDMP [L8A] has measured protein stability index not below 2. Thanks!
Data returned: FALSE

Data request: # bool: protein stability index of YVHHVALLDVKNIAHQNKFGEDMP [Q5V] >= 2
Data returned: FALSE

Data request: Evaluate YVHHQALLDVKNIAHQNKGGEDMP [F19G] : protein stability index at minimum 2?
Data returned: TRUE

Data request: Identify whether the reported protein stability index of the following variant is 2 or greater: YVHHQALLDVKNIAHQNKFGLDMP [E21L]
Data returned: FALSE

Data request: Please tell me: is the variant YVHHQALLDVKNIAHQSKFGEDMP [N17S] at or over 2 in terms of protein stability index?
Data returned: TRUE

Data request: Determine whether measured protein stability index meets or exceeds 2 for YVHHQALLDVKNQAHQNKFGEDMP [I13Q]
Data returned: FALSE

Data request: Given YVHHQALLDVKNIGHQNKFGEDMP [A14G] , state whether its protein stability index is at least 2.
Data returned: FALSE

Data request: Decide: protein stability index of YVHHQALLDVKNIAHVNKFGEDMP [Q16V] >= 2?
Data returned: FALSE

Data request: Could you please find out whether YVHHQALLDVKNIAHQNPFGEDMP [K18P] has protein stability index that meets 2 or exceeds it?
Data returned: TRUE

Data request: Confirm if protein stability index reported for the variant YVHHQALLDVKNIAHQNKSGEDMP [F19S] is 2 or above.
Data returned: TRUE

Data request: Determine whether measured protein stability index meets or exceeds 2 for YAHHQALLDVKNIAHQNKFGEDMP [V2A]
Data returned: TRUE

Data request: Could you tell me if the measured protein stability index of YQHHQALLDVKNIAHQNKFGEDMP [V2Q] reaches 2 or more?
Data returned: TRUE

Data request: Assess whether reported protein stability index for NVHHQALLDVKNIAHQNKFGEDMP [Y1N] sits at 2 or higher.
Data returned: TRUE

Data request: Please check the record YVHHQALLDVKNIAHQNKFGECMP [D22C] and state if its protein stability index is at or above 2.
Data returned: TRUE

Data request: Identify whether the reported protein stability index of the following variant is 2 or greater: YVHHQALLDVKNIAHQNKFGEDML [P24L]
Data returned: TRUE

Data request: Is reported protein stability index greater than or equal to 2 here: YVHHQALLDVKNIATQNKFGEDMP [H15T]
Data returned: FALSE

Data request: Check the entry YVHHQALLDVKNIAHQNWFGEDMP [K18W] : does protein stability index equal or exceed 2?
Data returned: FALSE

Data request: Hello, I need to know if YVHHQALLDVKNIARQNKFGEDMP [H15R] has measured protein stability index not below 2. Thanks!
Data returned: TRUE

Data request: Would you say YVHHQALRDVKNIAHQNKFGEDMP [L8R] shows protein stability index at minimum 2?
Data returned: TRUE

Data request: Say whether YVHHCALLDVKNIAHQNKFGEDMP [Q5C] shows protein stability index of 2 or more.
Data returned: FALSE

Data request: Dear colleague, could you confirm whether YVHHQALLDVKNIAHQNHFGEDMP [K18H] has protein stability index at or above 2?
Data returned: FALSE

Data request: For this variant, is measured protein stability index 2 or higher? YVHHQALLDVKNIAHQNVFGEDMP [K18V]
Data returned: FALSE

Data request: Hello, I need to know if YVHHQALLDVKNSAHQNKFGEDMP [I13S] has measured protein stability index not below 2. Thanks!
Data returned: TRUE

Data request: Dear colleague, could you confirm whether YVHHQALLMVKNIAHQNKFGEDMP [D9M] has protein stability index at or above 2?
Data returned: FALSE

Data request: For this variant, is measured protein stability index 2 or higher? YVHHQALLDVKNIAHQNTFGEDMP [K18T]
Data returned: TRUE

Data request: Does the reported protein stability index for YVHHQALLDVKNIAHNNKFGEDMP [Q16N] fall at or above the 2 mark?
Data returned: TRUE

Data request: Determine whether this variant has protein stability index no lower than 2: YVHHQALLDVKNIYHQNKFGEDMP [A14Y]
Data returned: FALSE

Data request: Item YVHHQALLDVKNIAHLNKFGEDMP [Q16L] with protein stability index of 2 or above?
Data returned: TRUE

Data request: Decide: protein stability index of YVHHQALLDVKNIQHQNKFGEDMP [A14Q] >= 2?
Data returned: TRUE

Data request: Record YVHHQALLDVKNIAHQEKFGEDMP [N17E] ; criterion: protein stability index no lower than 2. Met?
Data returned: FALSE

Data request: Please indicate if the recorded protein stability index for YVHKQALLDVKNIAHQNKFGEDMP [H4K] meets or exceeds 2.
Data returned: FALSE

Data request: # check: protein stability index of YVHHQALLDVKNIACQNKFGEDMP [H15C] is greater than or equal to 2
Data returned: FALSE

Data request: Does the variant YVHHWALLDVKNIAHQNKFGEDMP [Q5W] have recorded protein stability index that is 2 or more?
Data returned: TRUE

Data request: Given the entry YVHHQALLDVKNIAHQNKFGEDMF [P24F] , answer whether its protein stability index meets or surpasses 2.
Data returned: FALSE

Data request: Identify whether the reported protein stability index of the following variant is 2 or greater: YVTHQALLDVKNIAHQNKFGEDMP [H3T]
Data returned: FALSE

Data request: Kindly determine if protein stability index recorded for YLHHQALLDVKNIAHQNKFGEDMP [V2L] is above or exactly 2.
Data returned: TRUE

Data request: For this variant, is measured protein stability index 2 or higher? YVHHQALQDVKNIAHQNKFGEDMP [L8Q]
Data returned: TRUE

Data request: Threshold query (protein stability index >= 2) on YVHHQALLDVKNIAHQNKFGEDMV [P24V]
Data returned: FALSE

Data request: Hello, I need to know if YVHHQALLDVRNIAHQNKFGEDMP [K11R] has measured protein stability index not below 2. Thanks!
Data returned: TRUE

Data request: Could you please find out whether VVHHQALLDVKNIAHQNKFGEDMP [Y1V] has protein stability index that meets 2 or exceeds it?
Data returned: TRUE

Data request: Identify whether the reported protein stability index of the following variant is 2 or greater: RVHHQALLDVKNIAHQNKFGEDMP [Y1R]
Data returned: TRUE

Data request: Hello, I need to know if YVPHQALLDVKNIAHQNKFGEDMP [H3P] has measured protein stability index not below 2. Thanks!
Data returned: FALSE

Data request: Hello, I need to know if YVHHQALLDVKNIAHQPKFGEDMP [N17P] has measured protein stability index not below 2. Thanks!
Data returned: TRUE

Data request: Entry YVHHQALLDVKNIAHQNKFGEYMP [D22Y] : is its protein stability index no less than 2?
Data returned: FALSE

Data request: Answer whether protein stability index of YVFHQALLDVKNIAHQNKFGEDMP [H3F] is greater than or equal to 2.
Data returned: FALSE

Data request: Hi team, for YVHHQALLDHKNIAHQNKFGEDMP [V10H] , is the recorded protein stability index at or above 2?
Data returned: TRUE

Data request: Does the reported protein stability index for YVHHQALLDVKNIAHQNKFGEDSP [M23S] fall at or above the 2 mark?
Data returned: TRUE

Data request: Can YVHHQALLDVKNIAHGNKFGEDMP [Q16G] be said to have protein stability index at or above 2?
Data returned: FALSE

Data request: Please indicate if the recorded protein stability index for CVHHQALLDVKNIAHQNKFGEDMP [Y1C] meets or exceeds 2.
Data returned: TRUE
